Target: T1, nonhuman primate CD36 (on HEK 293 cells) (cynomolgus monkey / rhesus macaque, UniProt P16671 2-472 (human entry))
T1 construct: also called non-human primate CD36 (cynomolgus)
T1 sequence (P16671 other isoform, or with tags, fused parts or gaps limits assumed): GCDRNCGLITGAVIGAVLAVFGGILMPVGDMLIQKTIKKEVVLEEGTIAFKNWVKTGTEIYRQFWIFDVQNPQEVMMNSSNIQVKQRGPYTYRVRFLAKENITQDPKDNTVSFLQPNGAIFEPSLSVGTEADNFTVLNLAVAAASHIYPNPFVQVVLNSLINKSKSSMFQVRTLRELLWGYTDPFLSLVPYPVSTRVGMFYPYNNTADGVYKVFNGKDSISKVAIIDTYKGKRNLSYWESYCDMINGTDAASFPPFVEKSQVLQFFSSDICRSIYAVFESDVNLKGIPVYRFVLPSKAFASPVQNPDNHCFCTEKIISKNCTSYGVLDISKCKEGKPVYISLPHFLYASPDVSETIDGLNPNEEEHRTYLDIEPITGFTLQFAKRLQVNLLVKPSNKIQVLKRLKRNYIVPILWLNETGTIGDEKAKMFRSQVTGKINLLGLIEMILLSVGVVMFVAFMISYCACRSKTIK
Test: FACS, HEK 293 cells transiently overexpressing CD36;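 further: antibody binding to transfected cells detected by flow cytometry with a fluorescent anti-human secondary antibody, EC50 from a four-parameter sigmoidal fit of mean fluorescence intensity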
Note to self: EC50 under 4 nM means Met, ties and anything higher get Not met.

Consider the worked cases shown below.
{"BINDER": "22G04 (antibody, human IgG1, V domains shown, Chimeric: mouse variable regions on human IgG1 LALA (L234A/L235A)) VH: QVQLQQPGAELVKPGASVKLSCKASGYTFTSYWMHWVKQRPGQGLEWIGEIDPSDSHANYNQKFKGKATLTVDKSSSTAYMQLSSLTSEDSAVYYCAPIHYGLDNWGQGTTLTVSS VL: DIVLTQSQKFMSTSVGDRVSVTCKASQNVGTNVAWYQQKPGQSPKALIYSASYRYSGVPDRFTGSGSGTDFTLTISNVQSEDLAEYFCQQYNSYPLTFGAGTKLELK", "CATEGORY": "Met"}
{"BINDER": "6G04 (antibody, human IgG1, V domains shown, Chimeric: mouse variable regions on human IgG1 LALA (L234A/L235A); also called 06G04; 006G04) VH: QVQLQQSGAELVMPGASVKMSCKASGYTFTDYWMHWVKQRPGQGLEWIGSIDTSDSYTTYSQKFKGKATLTVDESSSTAYMELARLTSEDSAIYYCVRGEDYEGTWFAYWGQGTLVTVSA VL: ETTVTQSPASLSVATGEKVTIRCITSTDIDDDMNWYQQKPGEPPKLLISEGNTLRPGVPSRFSSSGYGTDFVFTIENTLSEDVADYYCLQSDNMPLTFGAGTKLELK", "CATEGORY": "Not met"}
{"BINDER": "23G04 (antibody, human IgG1, V domains shown, Chimeric: mouse variable regions on human IgG1 LALA (L234A/L235A); also called 023G04) VH: QVQLQQPGTELVKPGASVKLSCKASGYTFTSYWMHWVKQRPGQGLEWIGEIDPSDSHTNYNQKFKGKATLTVDKSSSTAYMQLSSLTSEDSAVYYCAPIYYGLDNWGQGTTLTVSS VL: DIVLTQSQKFMSTSVGDRVSVTCKASQNVGTNVAWYQQKPGQSPKALIYSASYRYSGVPDRFTGSGSGTDFTLTISNVQSEDLAEYFCQQYNSYPYTFGGGTKLEIK", "CATEGORY": "Met"}

Would you kindly look at the next entry?
### Prompt Please state whether EC50 is below 4 nM for 5G04 (antibody, human IgG1, V domains shown, Chimeric: mouse variable regions on human IgG1 LALA (L234A/L235A); also called 05G04; 005G04) VH: QVQLQQSGAELVMPGASVKMSCKASGYTFTDYWMHWVKQRPGQGLEWIGAIDTSDSYTSYNQKFKGKATLTVDESSSTAYMQLSSLTSEDSAVYYCARDYYGSSTAWFAYWGQGTLVTVSA VL: ETTVTQSPASLSMAIGEKVTIRCITSTDIDDDMNWYQQKPGEPPKLLISEGNTLRPGVPSRFSSSGYGTDFVFTIDNMLSEDVADYYCLQSDNLPFTFGSGTKLEIK
### Response Met

Origin of measurements: patent US20250206836A1
